assayProtocol: AUC in Beagle dog at 3 mg/kg, po
Type: ADME, organism-based, Canis lupus familiaris
Design: dose 3 mg/kg, route oral
testSettings: plasma
experimentalReadout: AUC

Data request: For C[C@@H]1CCCN1CCCOc1ccc(-c2cnn(-c3ccccn3)c(=O)c2)cc1 , what is its reported AUC?
Data returned: 2400 ng·h/mL

* * *

measuredOn: UniProt P08684
Sequence (P08684 whole entry): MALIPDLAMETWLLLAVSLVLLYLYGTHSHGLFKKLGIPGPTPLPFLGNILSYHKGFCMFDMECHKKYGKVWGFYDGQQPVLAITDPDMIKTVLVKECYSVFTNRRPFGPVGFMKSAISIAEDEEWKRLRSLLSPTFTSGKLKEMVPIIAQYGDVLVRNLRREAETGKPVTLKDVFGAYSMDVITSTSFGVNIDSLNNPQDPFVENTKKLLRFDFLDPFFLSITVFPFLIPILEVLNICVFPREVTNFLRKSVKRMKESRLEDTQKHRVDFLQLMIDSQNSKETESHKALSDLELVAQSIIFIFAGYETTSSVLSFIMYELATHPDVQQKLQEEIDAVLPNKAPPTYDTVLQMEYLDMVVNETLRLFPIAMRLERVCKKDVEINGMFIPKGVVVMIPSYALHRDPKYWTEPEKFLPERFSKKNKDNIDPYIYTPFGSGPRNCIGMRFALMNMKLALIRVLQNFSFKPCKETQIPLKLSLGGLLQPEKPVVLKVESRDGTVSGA
experimentalReadout: IC50

Data request: For C[C@@H]1CCCN1CCCOc1ccc(-c2cnn(-c3ccccn3)c(=O)c2)cc1 , what is its reported IC50?
Data returned: > 30 µM

* * *

assayProtocol: Cmax in Sprague-Dawley rat at 1 mg/kg, iv and 10 mg/kg, po
Format: ADME, organism-based
testSettings: in vivo
experimentalReadout: Cmax

Data request: For C[C@@H]1CCCN1CCCOc1ccc(-c2cnn(-c3ccccn3)c(=O)c2)cc1 , what is its reported Cmax?
Data returned: 898 ng/mL

* * *

assayProtocol: Plasma protein binding in Beagle dog
Format: ADME, cell-free, Canis lupus familiaris
testSettings: read-out: PPB (converted)
experimentalReadout: fraction unbound
// no unit, no text: just the number

Data request: For C[C@@H]1CCCN1CCCOc1ccc(-c2cnn(-c3ccccn3)c(=O)c2)cc1 , what is its reported fraction unbound?
Data returned: 0.68

* * *

assayProtocol: Volume of distribution in cynomolgus monkey at 1 mg/kg, iv and 3 mg/kg, po
Type: ADME, organism-based, Macaca fascicularis
testSettings: in vivo
experimentalReadout: Vd (L/kg)
# number only, unit L/kg dropped from output

Data request: For C[C@@H]1CCCN1CCCOc1ccc(-c2cnn(-c3ccccn3)c(=O)c2)cc1 , what is its reported Vd?
Data returned: 7.1

* * *

assayProtocol: AUC in cynomolgus monkey at 3 mg/kg, po
Format: ADME, organism-based, Macaca fascicularis
Design: dose 3 mg/kg, route oral
testSettings: plasma
experimentalReadout: AUC (ng·h/mL)
# number only, unit ng·h/mL dropped from output

Data request: For C[C@@H]1CCCN1CCCOc1ccc(-c2cnn(-c3ccccn3)c(=O)c2)cc1 , what is its reported AUC?
Data returned: 2080

* * *

Ki data for Histamine H3 receptor (Rattus norvegicus, UniProt Q9QYN8) follow.
Please answer using a numeric value trailed by its unit.

Cc1nn(C)c(=O)cc1-c1ccc(OCCCN2CCC[C@H]2C)cc1: 6.5 nM
O=c1cc(-c2ccc(OCCCN3CCCCC3)cc2)cn[nH]1: 28 nM

Data request: Query for Histamine H3 receptor (Rattus norvegicus, UniProt Q9QYN8): what Ki does the record show for Cc1n[nH]c(=O)cc1-c1ccc(OCCCN2CCCCCC2)cc1 ?
Data returned: 7.5 nM

Data request: Query for Histamine H3 receptor (Rattus norvegicus, UniProt Q9QYN8): what Ki does the record show for C[C@@H]1CCCN1CCCOc1ccc(-c2cnn(C)c(=O)c2)cc1 ?
Data returned: 5.5 nM

Data request: Query for Histamine H3 receptor (Rattus norvegicus, UniProt Q9QYN8): what Ki does the record show for Cc1cccnc1-n1ncc(-c2ccc(OCCCN3CCC[C@H]3C)cc2)cc1=O ?
Data returned: 8.6 nM

Data request: Query for Histamine H3 receptor (Rattus norvegicus, UniProt Q9QYN8): what Ki does the record show for Cc1nn(C)c(=O)cc1-c1ccc(OCCCN2CCCCC2)cc1 ?
Data returned: 18 nM

Data request: Query for Histamine H3 receptor (Rattus norvegicus, UniProt Q9QYN8): what Ki does the record show for C[C@@H]1CCCN1CCCOc1ccc(-c2ccc(=O)[nH]n2)cc1 ?
Data returned: 8.5 nM

* * *

assayProtocol: Oral bioavailability in Sprague-Dawley rat at 5 mg/kg
Type: ADME, organism-based
testSettings: in vivo
experimentalReadout: bioavailability (%)
# number only, unit % dropped from output

Cc1nn(C)c(=O)cc1-c1ccc(OCCCN2CCCCC2)cc1: 69
Cn1ncc(-c2ccc(OCCCN3CCCCC3)cc2)cc1=O: 40
Cc1cccnc1-n1ncc(-c2ccc(OCCCN3CCC[C@H]3C)cc2)cc1=O: 30
Cc1n[nH]c(=O)cc1-c1ccc(OCCCN2CCC[C@H]2C)cc1: 20

Data request: For Cc1n[nH]c(=O)cc1-c1ccc(OCCCN2CCCCC2)cc1 , what is its reported bioavailability?
Data returned: 28

Data request: For Cc1n[nH]c(=O)cc1-c1ccc(OCCCN2CCCCCC2)cc1 , what is its reported bioavailability?
Data returned: 25

* * *

assayProtocol: Clearance in Sprague-Dawley rat at 1 mg/kg, iv and 5 mg/kg, po
Format: ADME, organism-based
testSettings: in vivo
The following molecules are shown together with reported clearance values.
# number only, unit mL/min/kg dropped from output

Data request: For Cc1nn(C)c(=O)cc1-c1ccc(OCCCN2CCC[C@H]2C)cc1 , what is its reported clearance?
Data returned: 67

Data request: For Cc1cccnc1-n1nc(C)c(-c2ccc(OCCCN3CCC[C@H]3C)cc2)cc1=O , what is its reported clearance?
Data returned: 7

* * *

assayProtocol: AUC in Sprague-Dawley rat at 10 mg/kg, po
Format: ADME, organism-based
Set-up: dose 10 mg/kg, route oral
testSettings: plasma
experimentalReadout: AUC (ng·h/mL)
# number only, unit ng·h/mL dropped from output

Data request: For C[C@@H]1CCCN1CCCOc1ccc(-c2cnn(-c3ccccn3)c(=O)c2)cc1 , what is its reported AUC?
Data returned: 6800

* * *

The following molecules are shown together with reported half-life values.
assayProtocol: Half life in Sprague-Dawley rat at 1 mg/kg, iv and 5 mg/kg, po
Type: ADME, organism-based
testSettings: in vivo
# number only, unit h dropped from output

Cn1ncc(-c2ccc(OCCCN3CCCCC3)cc2)cc1=O: 0.6
C[C@H]1CCCN1CCCOc1ccc(-c2cnn(-c3ccccn3)c(=O)c2)cc1: 2.8
CC(C)n1ncc(-c2ccc(OCCCN3CCC[C@H]3C)cc2)cc1=O: 0.3
O=c1cc(-c2ccc(OCCCN3CCCCCC3)cc2)cnn1-c1ccccn1: 1.8
O=c1cc(-c2ccc(OCCCN3CCCCC3)cc2)cn[nH]1: 1.6

Data request: For C[C@@H]1CCCN1CCCOc1ccc(-c2cnn(C)c(=O)c2)cc1 , what is its reported half-life?
Data returned: 1

Data request: For Cc1n[nH]c(=O)cc1-c1ccc(OCCCN2CCCCC2)cc1 , what is its reported half-life?
Data returned: 0.8

Data request: For Cc1cccc(-n2ncc(-c3ccc(OCCCN4CCC[C@H]4C)cc3)cc2=O)n1 , what is its reported half-life?
Data returned: 2.2

Data request: For Cc1nn(C)c(=O)cc1-c1ccc(OCCCN2CCCCC2)cc1 , what is its reported half-life?
Data returned: 1.6

* * *

The following compounds are shown together with reported bioavailability values.
assayProtocol: Oral bioavailability in Sprague-Dawley rat at 5 mg/kg
Format: ADME, organism-based
testSettings: in vivo
# number only, unit % dropped from output

Cc1cccnc1-n1nc(C)c(-c2ccc(OCCCN3CCC[C@H]3C)cc2)cc1=O: 20
C[C@@H]1CCCN1CCCOc1ccc(-c2cnn(C)c(=O)c2)cc1: 19
O=c1cc(-c2ccc(OCCCN3CCCCC3)cc2)cn[nH]1: 42

Data request: For O=c1cc(-c2ccc(OCCCN3CCCCCC3)cc2)cnn1-c1ccccn1 , what is its reported bioavailability?
Data returned: 28

* * *

The following compounds are shown together with reported clearance values.
assayProtocol: Clearance in Sprague-Dawley rat at 1 mg/kg, iv and 5 mg/kg, po
Assay type: ADME, organism-based
testSettings: in vivo

O=c1cc(-c2ccc(OCCCN3CCCCC3)cc2)cn[nH]1: 24 mL/min/kg
Cn1ncc(-c2ccc(OCCCN3CCCCC3)cc2)cc1=O: 75 mL/min/kg
Cc1nn(-c2ccccn2)c(=O)cc1-c1ccc(OCCCN2CCC[C@H]2C)cc1: 13 mL/min/kg
C[C@@H]1CCCN1CCCOc1ccc(-c2cnn(C)c(=O)c2)cc1: 32 mL/min/kg
CC(C)n1ncc(-c2ccc(OCCCN3CCC[C@H]3C)cc2)cc1=O: 12 mL/min/kg

Data request: For Cc1cccc(-n2ncc(-c3ccc(OCCCN4CCC[C@H]4C)cc3)cc2=O)n1 , what is its reported clearance?
Data returned: 23 mL/min/kg

Data request: For Cc1cccnc1-n1ncc(-c2ccc(OCCCN3CCC[C@H]3C)cc2)cc1=O , what is its reported clearance?
Data returned: 34 mL/min/kg

Data request: For Cc1n[nH]c(=O)cc1-c1ccc(OCCCN2CCCCC2)cc1 , what is its reported clearance?
Data returned: 30 mL/min/kg

Data request: For Cc1n[nH]c(=O)cc1-c1ccc(OCCCN2CCCCCC2)cc1 , what is its reported clearance?
Data returned: 54 mL/min/kg

Data request: For Cc1nn(C)c(=O)cc1-c1ccc(OCCCN2CCCCC2)cc1 , what is its reported clearance?
Data returned: 48 mL/min/kg

* * *

The following molecules are shown together with reported half-life values.
assayProtocol: Half life in Sprague-Dawley rat at 1 mg/kg, iv and 5 mg/kg, po
Type: ADME, organism-based
testSettings: in vivo
# number only, unit h dropped from output

Data request: For O=c1cc(-c2ccc(OCCCN3CCCCC3)cc2)cnn1-c1ccccn1 , what is its reported half-life?
Data returned: 1.6

Source listed as ChEMBL document CHEMBL1955733.
